The reported numbers originate from PubChem BioAssay.

target: Fibroblast growth factor 10 (Homo sapiens); test: FGF10 binders on small-molecule microarrays, primary screen, biochemical, small-molecule microarray, 635 nm fluorescence (AID 1102); details: FGF10 binding, fluorescence 635 nm, higher = more signal
EXPERIMENTAL_ENDPOINT: composite z-score
Number only, please.

{"COMPOUND": "CC(C)=CCCC(C)=CCON=C1C[C@@H](O)[C@@H](O)[C@@H]2[C@@H]3C(=O)N(C4CCCCC4)C(=O)[C@@H]3CC[C@@H]12", "EXPERIMENTAL_ENDPOINT": "composite z-score", "NUMERIC_VALUE": 0.368}
{"COMPOUND": "COc1cccc([C@H]2Oc3ccc(OC)cc3C(=NOC[C@@H](O)[C@H]3O[C@@H]4OC(C)(C)O[C@@H]4[C@H]3O)[C@@H]2O)c1", "EXPERIMENTAL_ENDPOINT": "composite z-score", "NUMERIC_VALUE": 0.654}
{"COMPOUND": "CC(C)CON=C1[C@H]2CCn3c(=O)n(Cc4cc5c(cc4Cl)OCO5)c(=O)n3[C@H]2[C@H](O)[C@@H]2O[C@H]12", "EXPERIMENTAL_ENDPOINT": "composite z-score", "NUMERIC_VALUE": 0.533}

Kindly note: Fibroblast growth factor 10 (Homo sapiens), CC(=O)OC[C@H]1OC(ON=CC[C@@H]2C=C[C@H](OC(C)=O)[C@@H](COC(C)=O)O2)[C@H](OC(C)=O)[C@@H](OC(C)=O)[C@@H]1OC(C)=O (stereo partly specified) , composite z-score value reported: 0.384

`C#CCCCON=C1C[C@@H](O)[C@@H](O)[C@@H]2[C@@H]3C(=O)N(c4ccc(F)cc4F)C(=O)[C@@H]3CC[C@@H]12` on Fibroblast growth factor 10 (Homo sapiens) gives composite z-score = -0.0402

Bench note, Fibroblast growth factor 10 (Homo sapiens): entry CCOC(=O)[C@H](Cc1ccccc1)NC(=O)CCC1CC(OC(=O)NCCc2ccc(F)cc2)CC2(CCCC(COC(=O)NCC3CCCCC3)O2)O1 (stereo partly specified) , its composite z-score = 1.03

* * *

experiment: E. coli growth modulation, two-sided OD650, primary screen, E. coli filamentation project, strain DRC41, 24 h (AID 1093); settings: OD650, 24 h, higher = more signal, called active from +8 up or from −8 down;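 note: MC1000 strain lacking acrAB efflux and sulA so SOS filamentation is blocked; test concentration not given here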
EXPERIMENTAL_ENDPOINT: z-score
The response must contain the number and no unit.

Recorded z-score, per entry:
{"COMPOUND": "CCOC(=O)NN=C1C[C@@H](O)[C@@H](O)[C@@H]2[C@@H]3C(=O)N(C(C)(C)C)C(=O)[C@@H]3CC[C@H]12", "EXPERIMENTAL_ENDPOINT": "z-score", "NUMERIC_VALUE": 0.443}
{"COMPOUND": "COc1ccc(COC(=O)NN=C2C[C@@H](O)[C@@H](O)[C@@H]3[C@@H]4C(=O)N(C5CCCCC5)C(=O)[C@@H]4CC[C@H]23)cc1", "EXPERIMENTAL_ENDPOINT": "z-score", "NUMERIC_VALUE": -0.277}
{"COMPOUND": "CC(C)=CCCC(C)=CCON=C1C[C@@H](O)[C@@H](O)[C@@H]2[C@@H]3C(=O)N(C(C)(C)C)C(=O)[C@@H]3CC[C@H]12", "EXPERIMENTAL_ENDPOINT": "z-score", "NUMERIC_VALUE": 0.281}
{"COMPOUND": "CC(CCN1CCCCc2nc(C)c(C)cc21)=NO[C@@H](C)c1cn([C@H](CO)Cc2ccccc2)nn1", "EXPERIMENTAL_ENDPOINT": "z-score", "NUMERIC_VALUE": 0.457}
{"COMPOUND": "COC(=O)[C@@H]1CC[C@H](C)[C@@H](c2ccc(C)cc2)N1C(=O)c1ccc(C=NO[C@H](C)c2cn([C@H](CO)Cc3ccccc3)nn2)cc1", "EXPERIMENTAL_ENDPOINT": "z-score", "NUMERIC_VALUE": -0.551}

// field: z-score; key: `CCN1C(=O)[C@H]2[C@H]3[C@H](O)[C@H](O)CC(=NO[C@@H](C)c4cn([C@H](CO)Cc5ccccc5)nn4)[C@@H]3CC[C@H]2C1=O` ; value = 0.194

Reported z-score ( `O=C1C[C@@H](O)[C@@H](O)[C@@H]2[C@@H]3C(=O)N(Cc4ccc5c(c4)OCO5)C(=O)[C@@H]3CC[C@H]12` ) = 0.378

* * *

biological target: Torsin-1A (Homo sapiens) (UniProt O14656); assay: small-molecule binders of mutant TOR1A in lysate, primary screen, cell lysate, small-molecule microarray, COS7 lysate, 635/667 nm fluorescence (AID 1150); details: COS7 hTOR1A mutant lysate, 635 nm fluorescence, higher = more signal;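 note: score pools 667 nm emission and signal to noise measuring lysate protein binding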
Sequence (O14656 whole entry, looked up): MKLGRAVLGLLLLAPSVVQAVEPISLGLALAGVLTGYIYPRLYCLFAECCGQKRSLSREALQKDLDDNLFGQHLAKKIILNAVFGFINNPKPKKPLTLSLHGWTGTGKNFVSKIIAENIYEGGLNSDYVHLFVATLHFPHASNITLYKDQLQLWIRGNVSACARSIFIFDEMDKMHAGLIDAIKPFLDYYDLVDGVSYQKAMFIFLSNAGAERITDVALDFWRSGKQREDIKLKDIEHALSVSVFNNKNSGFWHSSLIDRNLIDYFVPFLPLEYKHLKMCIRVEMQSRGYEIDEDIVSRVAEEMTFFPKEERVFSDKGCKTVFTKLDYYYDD
// composite z-score lookup, one value per entry
Form rule: numeric answer, no unit written next to it.

# composite z-score (compound: `O=C1[C@H]2[C@H]3[C@H](O)[C@H](O)CC(=NOC[C@@H](O)COCc4ccco4)[C@H]3CC[C@H]2C(=O)N1C[C@@H]1CCCO1` ) is 2.75

Documented composite z-score of CCOC(=O)[C@H](Cc1ccccc1)NC(=O)CCC1CC(OC(=O)NCCc2ccc(F)cc2)CC2(CCCC(COC(=O)NCCCN3CCCC3=O)O2)O1 (some centres undefined) : 0.321

For reference, reported composite z-score for `COC(=O)NCC=Cc1nc(CCCO)co1` stands at 0.802

composite z-score in this record for `CC(C)CON=C1C[C@@H](O)[C@@H](O)[C@@H]2[C@@H]3C(=O)N(C[C@@H]4CCCO4)C(=O)[C@@H]3CC[C@@H]12` : 0.0844

* * *

molecular target: Streptavidin (Streptomyces avidinii); experiment: streptavidin binders on small-molecule microarray, primary screen, artefact control for SMM compound annotation, biophysical, 635/667 nm fluorescence (AID 1147); conditions: streptavidin binding, higher = more signal;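 note: signal reflects streptavidin binding to arrayed compounds as a control protein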
Reported composite z-score values follow for various molecules
Please state the value as a number alone, without comment.

Examples with answers:
{"MOLECULE": "COC(=O)CC=C[C@@H](C)[C@@H](C=NOC[C@H]1O[C@H](c2ccccc2)C=C[C@@H]1Oc1ccc(OC)cc1)OC", "composite z-score": -0.682}
{"MOLECULE": "COC(=O)CC=C[C@@H](C)[C@@H]1C=C[C@H](O)[C@@H](CO)O1", "composite z-score": 0.89}
{"MOLECULE": "COC(=O)CC=C[C@@H](C)[C@@H](C=NOCC[C@@H]1C=C[C@H](OC(C)=O)[C@@H](COC(C)=O)O1)OC", "composite z-score": -0.227}
{"MOLECULE": "CC(C)=CCCC(C)=CCON=C1C[C@@H](O)[C@@H](O)[C@@H]2[C@@H]3C(=O)N(Cc4ccccc4)C(=O)[C@@H]3CC[C@@H]12", "composite z-score": -0.0277}
{"MOLECULE": "CCOC(=O)[C@H](CC(C)C)NC(=O)CCC1CC(OC(=O)NCc2cccc3ccccc23)CC2(CCCC(COC(=O)NCC3CCCCC3)O2)O1 (some centres undefined)", "composite z-score": 0.405}
{"MOLECULE": "O=C1[C@H]2[C@H]3[C@H](O)[C@H](O)CC(=NOC[C@@H](O)COCc4ccco4)[C@H]3CC[C@H]2C(=O)N1Cc1ccccc1", "composite z-score": -0.68}
{"MOLECULE": "COc1cccc([C@H]2Oc3ccc(OC)cc3C(=NOC(C)CN3CCCCc4nc(C)c(C)cc43)[C@@H]2O)c1 (some centres undefined)", "composite z-score": -0.519}
{"MOLECULE": "CC[C@@H](c1ccccc1)n1c(=O)n2n(c1=O)[C@H]1[C@H](O)[C@@H]3O[C@@H]3C(=NOC[C@@H](O)COCc3ccco3)[C@H]1CC2", "composite z-score": -0.715}

Given the molecule `C=COC[C@@H]1CN2[C@@H](CC[C@@H](C)[C@@H]2c2ccc(Br)cc2)C(=O)O1` and test system Streptavidin (Streptomyces avidinii), the measured composite z-score is -0.505

Fill in: Streptavidin (Streptomyces avidinii) composite z-score for `CC[C@@H](c1ccccc1)n1c(=O)n2n(c1=O)[C@H]1[C@H](O)[C@@H]3O[C@@H]3C(=O)[C@H]1CC2` = 0.092

Given the molecule `COc1ccc(O[C@H]2C=C[C@@H](c3ccccc3)O[C@@H]2COC(=O)CCC(C)=NO[C@@H]2O[C@H](COC(C)=O)[C@@H](OC(C)=O)[C@H](OC(C)=O)[C@H]2OC(C)=O)cc1` and test system Streptavidin (Streptomyces avidinii), the measured composite z-score is 0.484

Lab note: molecule CCOC(=O)[C@H](CC(C)C)NC(=O)CCC1CC(OC(=O)NCCc2ccc(F)cc2)CC2(CCCC(COC(=O)NCCOc3ccccc3)O2)O1 (some centres undefined) tested on Streptavidin (Streptomyces avidinii); recorded composite z-score was 0.939

GET /values?item= `CC(C)=CCCC(C)=CCON=C1C[C@@H](O)[C@@H](O)[C@@H]2[C@@H]3C(=O)N(c4ccc(F)cc4F)C(=O)[C@@H]3CC[C@H]12` &system= Streptavidin (Streptomyces avidinii) returns composite z-score: 0.0534

Summary line: `CC(CCN1CCCc2nc(C)c(C)cc21)=NO[C@@H](C)c1cc(-c2c(C)cc(C)cc2C)no1` , Streptavidin (Streptomyces avidinii), reported composite z-score = 0.327

Readout composite z-score for `CCN1C(=O)[C@@H]2[C@H]3C(=CC[C@@H]2C1=O)C1(OCCCO1)[C@H]1O[C@H]1[C@H]3O` , test system Streptavidin (Streptomyces avidinii), was 1.13

GET /values?item= `O=C1C[C@@H](O)[C@@H](O)[C@@H]2[C@@H]3C(=O)N(Cc4ccc5c(c4)OCO5)C(=O)[C@@H]3CC[C@H]12` &system= Streptavidin (Streptomyces avidinii) returns composite z-score: 0.139

Summary line: `C[C@H]1Cc2c(COc3ccccc3)nc3c(c2CO1)CN(CCOc1ccccc1)CC3` , Streptavidin (Streptomyces avidinii), reported composite z-score = 0.426

`CC(CCN1CCc2nc(-c3ccccc3)c(-c3ccccc3)cc2C1)=NOC[C@@H](O)COCc1ccco1` tested on Streptavidin (Streptomyces avidinii) gave composite z-score: 0.526

Streptavidin (Streptomyces avidinii) data for `COC(=O)CC=C[C@@H](C)[C@@H](C=NO[C@@H]1O[C@H](COC(C)=O)[C@@H](OC(C)=O)[C@H](OC(C)=O)[C@H]1OC(C)=O)OC` ; its composite z-score: -0.769

The molecule `CC(C)(C)N1C(=O)[C@H]2[C@H]3[C@H](O)[C@H](O)CC(=O)[C@H]3CC[C@H]2C1=O` , tested on Streptavidin (Streptomyces avidinii), showed composite z-score of -0.0955

Short answer on Streptavidin (Streptomyces avidinii) for `CO[C@@H]1COC(=O)CC=C[C@@H](C)[C@H](OC)COC(=O)[C@@H](C)COC(=O)CC=C[C@H]1C` , composite z-score: 0.0524

composite z-score value, target or system Streptavidin (Streptomyces avidinii), for COCCNC(=O)OCC1CCCC2(CC(OC(=O)NCc3ccc4c(c3)OCO4)CC(CCC(=O)N[C@@H](C)C(=O)OC)O2)O1 (some centres undefined) : 0.303

Short answer on Streptavidin (Streptomyces avidinii) for `C#CCCCON=C1C[C@@H](O)[C@@H](O)[C@@H]2[C@@H]3C(=O)N(C(C)(C)C)C(=O)[C@@H]3CC[C@H]12` , composite z-score: 0.941

Entry `CC(CCN1CCCCc2nc(C)c(C)cc21)=NOC[C@@H](C)[C@H](OCc1ccccc1)C(C)C` under Streptavidin (Streptomyces avidinii) had composite z-score of -2.45

Fill in: Streptavidin (Streptomyces avidinii) composite z-score for `COc1ccc(C#C[C@@H]2C=C[C@H](OC(C)=O)[C@@H](COC(C)=O)O2)cc1` = 0.271

`COC(=O)CC=C[C@@H](C)[C@@H](C=NOC[C@H]1O[C@H](c2ccccc2)C=C[C@@H]1Oc1ccc(OC)cc1)NS(=O)(=O)c1ccc(C)cc1` tested on Streptavidin (Streptomyces avidinii) gave composite z-score: -0.184

Considering `O=C(NN=C1C[C@@H](O)[C@@H](O)[C@@H]2[C@@H]3C(=O)N(Cc4ccccc4)C(=O)[C@@H]3CC[C@@H]12)OCc1ccccc1` , its composite z-score with Streptavidin (Streptomyces avidinii) was recorded as -0.418

The recorded composite z-score with Streptavidin (Streptomyces avidinii) for `COc1ccc(COC(=O)NN=C2C[C@@H](O)[C@@H](O)[C@@H]3[C@@H]4C(=O)N(c5ccc(F)cc5F)C(=O)[C@@H]4CC[C@H]23)cc1` was 1.19

Item CCOC(=O)[C@H](CC(C)C)NC(=O)CCC1CC(OC(=O)NCc2cccc3ccccc23)CC2(CCCC(COC(=O)NCc3ccncc3)O2)O1 (some centres undefined) was tested on Streptavidin (Streptomyces avidinii); the reported composite z-score is 0.629
